- System: U251 CNS
- Assay Procedure: NCI tumour cell line growth inhibition, 48 h
Assay Endpoint: log10(TGI) (log10 of the value in µM)

[
  {
    "Compound": "Cc1ccc(NCC2(/N=C/c3ccccc3)OC(CO)C(O)C2O)cc1 (centres undefined)",
    "log10(TGI)": 1.92
  },
  {
    "Compound": "COc1ccc(C2CC(c3c(O)ccc4ccccc34)=NN2)cc1OC (centres undefined)",
    "log10(TGI)": 1.04
  },
  {
    "Compound": "O=C(OC1=CCN(Br)C1=O)C1=C(O)C(=O)N(Br)C1",
    "log10(TGI)": 1.76
  },
  {
    "Compound": "CCC1=C(c2ccc(OC)cc2)C(C)(C)Oc2c1ccc(O)c2CN1CCCC1",
    "log10(TGI)": 0.48
  },
  {
    "Compound": "COc1ccc(-c2ncnc3c2ncn3CC#CCCl)cc1",
    "log10(TGI)": 0.69
  },
  {
    "Compound": "O=c1onc2n1-c1ccc(Cl)cc1C(=S)N1CSCC21 (centres undefined)",
    "log10(TGI)": 1.56
  },
  {
    "Compound": "CC(C)(C)c1cc(/C=C(\\C#N)C2=NCCO2)cc(C(C)(C)C)c1O",
    "log10(TGI)": 1.08
  },
  {
    "Compound": "Cc1ccc(CNc2ccc3nc(CCC4CCCCC4)[nH]c3c2)cc1",
    "log10(TGI)": 0.56
  },
  {
    "Compound": "COc1ccc2c(c1)CCC1C2CC[C@@]2(C)C1CC[C@@H]2NC(=O)Cc1ccc(O)c(O)c1 (some centres undefined)",
    "log10(TGI)": 1.27
  },
  {
    "Compound": "CC(C)(C)c1ccc2c(c1)OP1(Oc3c(Cl)cc(Cl)c4cccnc34)(O2)Oc2ccc(C(C)(C)C)cc2O1",
    "log10(TGI)": 1.20
  }
]
